B1: HEEH_KT_rd6_0007 (parent)
chain: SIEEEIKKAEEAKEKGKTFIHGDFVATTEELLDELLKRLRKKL

Variants of: B1
Test Summary: folding stability dG (cDNA display proteolysis); higher = more stable
Condition: PBS, room temperature
// values below are reported folding stability dG
Measured Endpoint: folding stability dG (kcal/mol)

> print(dat)
   mutation.key  assay.value
1           E3D         1.01
2          E34T         1.02
3           S1I        0.975
